- METHOD: NCI Yeast Anticancer Drug Screen. Data for the cln2 rad14 strain (AID 165)
- PARTICULARS: S. cerevisiae cln2 rad14 strain, stronger effect = higher value; at 50.0 µM unless noted
This is part of a sample that, as a whole, favours compounds with a hit. Of some 79,000 tested, about 15% had one in any assay.
growth inhibition below -20% gives criterion not met; growth inhibition at or above it gives criterion met.

COMPOUND	LABEL
Cc1ccc(C(=O)C2C(=O)C(=O)OC2C2OC(=O)C(=O)C2C(=O)c2ccc(C)cc2)cc1 (stereo not given)	criterion met
COc1c(Cl)cc(C(c2cc(Cl)c(OC)c(Cl)c2)C(Cl)(Cl)Cl)cc1Cl	criterion not met
O=C1c2c(ccc3c2CCCC3)CC1Cc1ccc2c(c1)CCCC2 (stereo not given)	criterion not met
Cn1c(-c2csc(-c3ccc(Cl)cc3)n2)n[nH]c1=S	criterion met
CCN1C(=O)C(=O)C(c2ccccc2)(c2ccccc2)C1=O	criterion not met
